target: T1, human αVβ6 integrin on cells (human, UniProt P06756 31-1048; P18564 22-788); test: FMAT, HEK 293 cells overexpressing αVβ6, supernatant
T1 construct: whole, on cells; Heterodimer on transfected cells (HEK 293, K562, 293T) or on αVβ6-positive tumour lines (HT29, Detroit-562); also called αVβ6 on HEK 293, K562, 293T-αVβ6, HT29, Detroit-562 cells
T1 sequence (P06756 31-1048, chain 1 of 2): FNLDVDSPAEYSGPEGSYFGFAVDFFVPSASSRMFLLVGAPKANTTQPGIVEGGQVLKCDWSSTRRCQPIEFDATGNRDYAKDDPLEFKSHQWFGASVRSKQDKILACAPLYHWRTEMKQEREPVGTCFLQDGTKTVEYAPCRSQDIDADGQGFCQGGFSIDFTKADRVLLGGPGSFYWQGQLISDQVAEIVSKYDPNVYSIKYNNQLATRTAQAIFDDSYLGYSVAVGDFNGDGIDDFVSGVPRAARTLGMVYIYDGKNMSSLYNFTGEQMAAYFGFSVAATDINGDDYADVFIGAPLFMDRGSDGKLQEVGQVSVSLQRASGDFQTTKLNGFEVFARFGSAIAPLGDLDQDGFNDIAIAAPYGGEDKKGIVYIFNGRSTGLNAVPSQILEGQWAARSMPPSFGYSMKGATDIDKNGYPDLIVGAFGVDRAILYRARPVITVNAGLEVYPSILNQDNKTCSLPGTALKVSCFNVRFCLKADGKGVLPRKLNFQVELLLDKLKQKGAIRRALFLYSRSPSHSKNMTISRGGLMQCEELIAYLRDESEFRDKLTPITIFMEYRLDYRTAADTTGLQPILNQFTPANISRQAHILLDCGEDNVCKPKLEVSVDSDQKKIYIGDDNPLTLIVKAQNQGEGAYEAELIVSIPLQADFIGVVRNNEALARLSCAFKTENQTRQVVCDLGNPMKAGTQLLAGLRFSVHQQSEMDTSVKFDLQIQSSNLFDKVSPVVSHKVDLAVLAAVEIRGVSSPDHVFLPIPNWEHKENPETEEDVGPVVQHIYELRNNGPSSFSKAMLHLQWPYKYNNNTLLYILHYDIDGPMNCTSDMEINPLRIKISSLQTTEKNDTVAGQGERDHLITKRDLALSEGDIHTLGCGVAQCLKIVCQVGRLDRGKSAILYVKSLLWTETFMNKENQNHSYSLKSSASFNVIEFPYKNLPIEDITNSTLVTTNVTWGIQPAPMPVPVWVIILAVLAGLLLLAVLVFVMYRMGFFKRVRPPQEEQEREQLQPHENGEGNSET
T1 sequence (P18564 22-788, chain 2 of 2): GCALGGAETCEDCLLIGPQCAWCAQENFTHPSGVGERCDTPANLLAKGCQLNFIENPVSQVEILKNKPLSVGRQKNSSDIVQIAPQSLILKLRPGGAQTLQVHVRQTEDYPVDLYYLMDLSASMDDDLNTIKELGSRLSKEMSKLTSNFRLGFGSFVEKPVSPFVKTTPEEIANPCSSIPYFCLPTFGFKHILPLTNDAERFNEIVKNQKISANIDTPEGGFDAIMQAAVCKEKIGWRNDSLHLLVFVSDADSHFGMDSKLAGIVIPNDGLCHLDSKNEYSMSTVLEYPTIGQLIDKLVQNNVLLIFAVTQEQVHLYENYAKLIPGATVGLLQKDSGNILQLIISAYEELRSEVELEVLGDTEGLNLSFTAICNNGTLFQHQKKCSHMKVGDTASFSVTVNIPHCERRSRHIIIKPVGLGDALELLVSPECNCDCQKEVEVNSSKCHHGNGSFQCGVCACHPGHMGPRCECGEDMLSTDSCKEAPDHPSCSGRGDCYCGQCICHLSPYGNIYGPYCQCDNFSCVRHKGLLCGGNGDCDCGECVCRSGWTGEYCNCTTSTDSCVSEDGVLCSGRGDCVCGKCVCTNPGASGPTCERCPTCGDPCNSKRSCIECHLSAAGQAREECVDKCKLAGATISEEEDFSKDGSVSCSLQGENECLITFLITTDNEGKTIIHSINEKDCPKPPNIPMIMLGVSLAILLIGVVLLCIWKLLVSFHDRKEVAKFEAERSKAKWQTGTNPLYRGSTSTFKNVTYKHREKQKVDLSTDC
The binders listed here are annotated with their FMAT FL1 × Count.
Form: value (number only, do not type unit).

Solved entries (count: 3):
binder	FMAT FL1 × Count
sc 277 (antibody, V domains shown) VH: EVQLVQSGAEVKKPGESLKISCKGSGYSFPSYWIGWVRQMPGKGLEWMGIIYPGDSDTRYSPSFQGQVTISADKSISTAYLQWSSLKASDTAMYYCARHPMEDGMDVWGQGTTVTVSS VL: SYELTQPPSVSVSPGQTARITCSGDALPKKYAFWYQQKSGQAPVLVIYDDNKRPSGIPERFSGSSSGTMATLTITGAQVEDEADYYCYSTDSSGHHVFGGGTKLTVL	10700
sc 188 (antibody, V domains shown) VH: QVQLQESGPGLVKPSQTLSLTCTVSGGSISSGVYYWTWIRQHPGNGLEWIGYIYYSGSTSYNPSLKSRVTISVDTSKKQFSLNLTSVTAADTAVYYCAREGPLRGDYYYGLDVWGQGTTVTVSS VL: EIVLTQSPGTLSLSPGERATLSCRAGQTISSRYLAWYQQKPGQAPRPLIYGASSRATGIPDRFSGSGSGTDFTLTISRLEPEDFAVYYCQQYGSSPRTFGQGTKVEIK	79800
sc 298 (antibody, V domains shown) VH: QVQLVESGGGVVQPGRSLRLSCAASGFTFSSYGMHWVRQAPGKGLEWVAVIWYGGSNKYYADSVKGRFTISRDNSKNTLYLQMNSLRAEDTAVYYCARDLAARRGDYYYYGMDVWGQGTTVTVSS VL: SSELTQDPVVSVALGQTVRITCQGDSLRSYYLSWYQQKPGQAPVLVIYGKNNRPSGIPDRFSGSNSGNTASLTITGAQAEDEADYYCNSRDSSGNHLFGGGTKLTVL	218000

Now for another entry.
Answer with reported FMAT FL1 × Count of sc 161 (antibody, V domains shown) VH: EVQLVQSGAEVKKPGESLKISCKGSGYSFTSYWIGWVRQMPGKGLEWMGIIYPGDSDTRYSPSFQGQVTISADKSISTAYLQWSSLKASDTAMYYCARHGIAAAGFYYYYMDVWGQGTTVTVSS VL: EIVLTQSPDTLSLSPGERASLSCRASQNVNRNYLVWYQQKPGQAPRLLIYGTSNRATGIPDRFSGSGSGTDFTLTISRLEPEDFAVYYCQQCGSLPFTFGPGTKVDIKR 16700
